# Test system: E. coli BW25113 ΔampC derivative JW4111-2
experimental.readout: MIC (µg/mL)
Quick note: give the figure in µg/mL, leave out the unit.

Check out these entries, answers already filled in.
CC1(C)SC2C(NC(=O)C(NC(=O)C3=C(O)C4CCCN4C3=O)c3ccccc3)C(=O)N2C1C(=O)O (stereo not drawn) [Compound 2780]	12.5
CC1(C)SC2C(NC(=O)C(NC(=O)C3=C(O)C(Cc4ccc(F)cc4)NC3=O)c3ccccc3)C(=O)N2C1C(=O)O (stereo not drawn) [Compound 2782]	6.25

Okay, next one:
input: Tell me MIC reported for CN1CC(O)=C(C(=O)NC(C(=O)NC2C(=O)N3C2SC(C)(C)C3C(=O)O)c2ccccc2)C1=O (stereo not drawn) [Compound 2742]
output: 25
